normalized growth for assorted molecules
test: chemical genetic growth profiling, strain panel (AID 1159580);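 further: tested at 20 µM; growth read once vehicle control cultures reached saturation at 30 °C; 1 = growth at the plate median or of vehicle wells; lower values mean less growth of the strain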; settings: S. cerevisiae deletion strains, growth OD, locus YDL185W, strain tfp1, stronger effect = lower value
About 2,000 (36%) of roughly 5,500 compounds were called active. Not shown: some 18% with an inconclusive outcome. Some of the results follow.

Observe how each entry below is paired with its result.
Molecule: C=CCc1cc(OC)c2c(c1OC)OCO2
Result: 0.968 (inactive)
--
Molecule: CC[C@@H](C(=O)O)[C@@H]1O[C@@H]([C@@H](C)[C@H](O)[C@H](C)C(=O)[C@H](CC)[C@H]2O[C@]3(C=C[C@@H](O)[C@]4(CC[C@@](C)(C5CC[C@](O)(CC)[C@H](C)O5)O4)O3)[C@H](C)C[C@@H]2C)[C@@H](C)C[C@H]1C (stereo not given in full)
Result: 0.993 (inactive)
--
Molecule: CC(=O)C1=C(O)C2C3c4c[nH]c5cccc(c45)CC3C(C)(C)N2C1=O (stereo not given)
Result: 0.995 (inactive)
--
Molecule: COc1ccc2c(c1O)-c1c(OC)c(OC)cc3c1[C@H](C2)N(C)CC3
Result: 1.03 (inactive)

Kindly consider the entry below.
For reference, reported normalized growth for CC12CCCC(O)(C1)C1CC(C)(C)C1CC2 (stereo not given) stands at 1.02 (inactive)
